# system_under_test: CD80-Ig (extracellular domain of CD80 fused with the constant region of mouse IgG1 heavy chain) (mouse)
# protocol_text: SPR competitive kinetics, peptide 0.5 × 10^5 nM with 3.2 µM CD28-Ig (competitor) over captured CD80-Ig
outcome_measure: Kd (µM)
# unit: µM | format: bare number

Give the measured Kd of Ac-KIEFMYPPPYLDNERSNGTI-NH2 [EL-CD28 (end-blocked L CD28 peptide mimetic)] . 5

# credit: patent US7220822
